Sourced from ChEMBL document CHEMBL5236662

assay_text: AUC (0 to infinity) in CD-1 mouse plasma at 2.5 mg/kg, iv measured for 24 hrs by LC-MS/MS analysis
Type: ADME, organism-based
Design: dose 2.5 mg/kg, time 24 hrs, route iv
measure_name: AUC(0-inf) (ng·h/mL)
// units = ng·h/mL; emit number, no label

Give the measured AUC(0-inf) for `C=C(C[C@H](N)C(=O)O)C(=O)NCc1ccc(F)cc1` 1460

====

assay_text: Antiproliferative activity against human WSU-HN31 cells assessed as inhibition of cell growth incubated for 72 hrs by CCK-8 assay
Type: functional, cell-based
condition_context: WSU-HN31, 72 h
pIC50 values by entry
Please report pIC50 as the negative decimal logarithm of the molar concentration, giving only the number.

Sample answers from the record:
C=C(C[C@H](N)C(=O)O)C(=O)NC1CC1; 3.71
C=C(C[C@H](N)C(=O)O)C(=O)N1CCCCC1; 3.68
C=C(C[C@H](N)C(=O)O)C(=O)NCc1ccc(F)cc1; 3.71
C=C(C[C@H](N)C(=O)O)C(=O)Nc1ccccc1; 3.70
C=C(C[C@H](N)C(=O)O)C(=O)Nc1ccc(F)cc1; 3.69

Give the measured pIC50 for `C=C(C[C@H](N)C(=O)O)C(=O)NCc1ccc([N+](=O)[O-])cc1` 3.71

Give the measured pIC50 for `C=C(C[C@H](N)C(=O)O)C(=O)NCc1ccccc1` 3.70
